Assay: Inhibition of RSV A2 RNA-dependent RNA polymerase expressed in human Hep2 cells using ATP, GTP, UTP, CTP and 1.5 uCi [alpha-32P] NTP as substrate assessed as reduction of total radiolabled transcript after 90 mins by agarose gel electrophoresis
Set-up: species or system Human respiratory syncytial virus A2
Details: hep-2
Hi there, I'd appreciate the recorded IC50 for every entry that follows.
Numbers only, in µM.

As a guide, the following entries are already answered.
{"columns": ["COMPOUND", "MEASURED_ENDPOINT", "VALUE_OBSERVED"],
 "data": [
  ["Nc1ccn([C@@H]2O[C@H](CO)[C@@H](O)[C@H]2F)c(=O)n1", "IC50", 1.8],
  ["Nc1ccn([C@@H]2O[C@@](CO)(CCl)[C@@H](O)[C@H]2F)c(=O)n1 [ALS-8112]", "IC50", 1],
  ["N#C[C@]1(CO)O[C@@H](n2cnc3c(=O)[nH]c(N)nc32)[C@H](F)[C@@H]1O", "IC50", 2.6],
  ["N#C[C@]1(CO)O[C@@H](c2ccc3c(N)ncnn23)[C@H](F)[C@@H]1O", "IC50", 0.086],
  ["Nc1ncnc2c1ncn2[C@@H]1O[C@H](CO)[C@@H](O)[C@H]1F [2'-BETA-FLUORO-2',3'-DEOXYADENOSINE]", "IC50", 7.7],
  ["C=C[C@]1(CO)O[C@@H](n2ccc(N)nc2=O)[C@H](F)[C@@H]1O", "IC50", 0.6],
  ["C#C[C@]1(CO)O[C@@H](n2cnc3c(=O)[nH]c(N)nc32)[C@H](F)[C@@H]1O", "IC50", 1.8],
  ["[N-]=[N+]=N[C@]1(CO)O[C@@H](n2ccc(N)nc2=O)[C@H](F)[C@@H]1O", "IC50", 0.3]
]}

Each compound below has a recorded value; state its IC50.
1. Nc1ncnn2c([C@@H]3O[C@H](CO)[C@@H](O)[C@H]3F)ccc12
2. C=C[C@]1(CO)O[C@@H](n2cnc3c(=O)[nH]c(N)nc32)[C@H](F)[C@@H]1O

Solution:
1: 0.6; 2: 12

====

Hi there, I'd appreciate the recorded CC50 at 120 h for every entry that follows.
Experiment: Cytotoxicity against human MT4 cells assessed as cell viability after 5 days by Cell-Titer Glo assay
Format: cell-based
Answers are plain numbers, in µM.

As a guide, the following entries are already answered.
{"columns": ["ENTRY_SMILES", "UNIT_INFO", "VALUE_OBSERVED"],
 "data": [
  ["N#C[C@]1(CO)O[C@@H](n2cnc3c(=O)[nH]c(N)nc32)[C@H](F)[C@@H]1O", "µM", 24],
  ["Nc1ncnn2c([C@@H]3O[C@H](CO)[C@@H](O)[C@H]3F)ccc12", "µM", 26],
  ["[N-]=[N+]=N[C@]1(CO)O[C@@H](n2ccc(N)nc2=O)[C@H](F)[C@@H]1O", "µM", 23],
  ["Nc1ccn([C@@H]2O[C@H](CO)[C@@H](O)[C@H]2F)c(=O)n1", "µM", 3.8],
  ["C=C[C@]1(CO)O[C@@H](n2cnc3c(=O)[nH]c(N)nc32)[C@H](F)[C@@H]1O", "µM", 46]
]}

Each compound below has a recorded value; state its CC50 at 120 h.
1. C#C[C@]1(CO)O[C@@H](n2cnc3c(=O)[nH]c(N)nc32)[C@H](F)[C@@H]1O
2. Nc1ccn([C@@H]2O[C@@](CO)(CCl)[C@@H](O)[C@H]2F)c(=O)n1

Solution:
39
21

====

Hi there, I'd appreciate the recorded inhibition for every entry that follows.
Biological target: DNA polymerase subunit gamma-1/gamma-2 (Homo sapiens) (UniProt P54098+Q9UHN1)
Sequence (P54098 whole entry, looked up): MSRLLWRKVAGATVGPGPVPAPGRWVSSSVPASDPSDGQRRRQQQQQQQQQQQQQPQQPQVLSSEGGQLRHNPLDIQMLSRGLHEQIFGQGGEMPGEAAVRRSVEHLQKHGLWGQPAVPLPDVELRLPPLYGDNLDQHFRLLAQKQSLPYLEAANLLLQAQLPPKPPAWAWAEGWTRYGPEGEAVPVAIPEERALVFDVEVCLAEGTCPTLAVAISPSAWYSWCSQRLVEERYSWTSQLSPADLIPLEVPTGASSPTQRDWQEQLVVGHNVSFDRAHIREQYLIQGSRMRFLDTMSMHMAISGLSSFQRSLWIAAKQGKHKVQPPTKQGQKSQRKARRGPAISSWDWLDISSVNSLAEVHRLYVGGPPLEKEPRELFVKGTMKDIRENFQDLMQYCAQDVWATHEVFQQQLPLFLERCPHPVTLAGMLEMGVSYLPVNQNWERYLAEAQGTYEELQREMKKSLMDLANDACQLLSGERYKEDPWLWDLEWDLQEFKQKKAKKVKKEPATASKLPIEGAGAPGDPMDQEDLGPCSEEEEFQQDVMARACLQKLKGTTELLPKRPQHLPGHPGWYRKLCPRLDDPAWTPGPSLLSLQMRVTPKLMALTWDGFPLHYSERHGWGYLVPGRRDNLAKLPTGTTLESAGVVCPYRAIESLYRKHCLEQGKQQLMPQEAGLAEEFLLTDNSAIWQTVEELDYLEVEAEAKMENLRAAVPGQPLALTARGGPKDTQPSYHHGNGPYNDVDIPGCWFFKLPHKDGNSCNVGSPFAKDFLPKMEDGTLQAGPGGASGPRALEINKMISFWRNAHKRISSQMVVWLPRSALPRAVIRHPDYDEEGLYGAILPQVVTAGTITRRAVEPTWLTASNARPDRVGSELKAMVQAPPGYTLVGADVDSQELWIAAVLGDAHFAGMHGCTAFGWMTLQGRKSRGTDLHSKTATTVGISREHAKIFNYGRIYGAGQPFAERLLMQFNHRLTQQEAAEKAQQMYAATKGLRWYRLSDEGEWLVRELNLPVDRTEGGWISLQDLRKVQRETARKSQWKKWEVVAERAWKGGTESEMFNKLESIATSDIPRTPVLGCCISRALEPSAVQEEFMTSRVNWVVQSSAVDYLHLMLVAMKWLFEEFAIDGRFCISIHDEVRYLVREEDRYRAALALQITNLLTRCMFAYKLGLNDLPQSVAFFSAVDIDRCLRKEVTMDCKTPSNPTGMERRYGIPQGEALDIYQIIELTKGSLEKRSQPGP
Sequence (Q9UHN1 whole entry, looked up): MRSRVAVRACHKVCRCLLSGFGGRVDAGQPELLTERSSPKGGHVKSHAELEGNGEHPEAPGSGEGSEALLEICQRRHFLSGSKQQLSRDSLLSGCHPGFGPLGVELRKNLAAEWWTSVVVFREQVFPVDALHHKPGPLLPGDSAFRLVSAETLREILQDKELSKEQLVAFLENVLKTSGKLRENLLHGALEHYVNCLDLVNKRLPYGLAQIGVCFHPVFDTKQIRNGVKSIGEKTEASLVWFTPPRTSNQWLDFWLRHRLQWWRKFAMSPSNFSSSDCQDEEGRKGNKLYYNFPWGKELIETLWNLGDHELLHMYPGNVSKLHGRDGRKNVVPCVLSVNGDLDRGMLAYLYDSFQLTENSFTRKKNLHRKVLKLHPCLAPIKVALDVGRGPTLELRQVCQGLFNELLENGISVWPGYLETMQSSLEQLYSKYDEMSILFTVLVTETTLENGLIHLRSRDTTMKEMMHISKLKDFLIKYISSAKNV
Assay: Inhibition of human mitochondrial DNA polymerase gamma large subunit/DNA polymerase gamma accessory subunit using 32P-D19/D36 as DNA primer/template assessed as single nucleotide incorporation rate at 100 uM after 5 to 90 mins by PAGE analysis relative to thymidine NTP
Type: protein assay
One number for each entry, in %.

{"columns": ["ENTRY_SMILES", "inhibition [%]"],
 "data": [
  ["O=c1ccn([C@@H]2O[C@H](CO)[C@@H](O)[C@H]2F)c(=O)[nH]1", 11],
  ["N#C[C@]1(CO)O[C@@H](n2cnc3c(=O)[nH]c(N)nc32)[C@H](F)[C@@H]1O", 3],
  ["CC[C@]1(CO)O[C@@H](c2ccc3c(N)ncnn23)[C@H](F)[C@@H]1O", 5.7]
]}

Each compound below has a recorded value; state its inhibition.
1. O=c1[nH]c(=O)n([C@@H]2O[C@H](CO)[C@@H](O)[C@@H]2F)cc1I
2. Nc1ccn([C@@H]2O[C@@](CO)(CCl)[C@@H](O)[C@H]2F)c(=O)n1
3. Nc1ncnn2c([C@@H]3O[C@H](CO)[C@@H](O)[C@H]3F)ccc12
4. C#C[C@]1(CO)O[C@@H](n2cnc3c(=O)[nH]c(N)nc32)[C@H](F)[C@@H]1O
5. C=C[C@]1(CO)O[C@@H](n2ccc(N)nc2=O)[C@H](F)[C@@H]1O
6. Nc1ncnc2c1ncn2[C@@H]1O[C@H](CO)[C@@H](O)[C@H]1F
7. C=C[C@]1(CO)O[C@@H](n2cnc3c(=O)[nH]c(N)nc32)[C@H](F)[C@@H]1O

Solution:
1. 99
2. 41
3. 2.5
4. 5
5. 4.9
6. 8
7. 1

Each compound below has a recorded value; state its inhibition.
1. [N-]=[N+]=N[C@]1(CO)O[C@@H](n2ccc(N)nc2=O)[C@H](F)[C@@H]1O
2. Nc1nc(O)c2ncn([C@@H]3O[C@H](CO)[C@@H](O)[C@H]3F)c2n1
3. Nc1ccn([C@@H]2O[C@H](CO)[C@@H](O)[C@H]2F)c(=O)n1

Solution:
[7, 34, 17]

Each compound below has a recorded value; state its inhibition.
1. CC[C@]1(CO)O[C@@H](n2ccc(N)nc2=O)[C@H](F)[C@@H]1O
2. C=C[C@]1(CO)O[C@@H](c2ccc3c(N)ncnn23)[C@H](F)[C@@H]1O

Solution:
[6, 10]

====

Experiment: Inhibition of RSV A2 RNA-dependent RNA polymerase expressed in human Hep2 cells using ATP, GTP, UTP, CTP and 1.5 uCi [alpha-32P] NTP as substrate assessed as reduction of total radiolabled transcript after 90 mins by agarose gel electrophoresis
Parameters: species or system Human respiratory syncytial virus A2
Conditions: hep-2
Hi there, I'd appreciate the recorded pIC50 for every entry that follows.
One number for each entry, as −log10 of the molar value.

As a guide, the following entries are already answered.
{"columns": ["ENTRY_SMILES", "pIC50"],
 "data": [
  ["CC[C@]1(CO)O[C@@H](c2ccc3c(N)ncnn23)[C@H](F)[C@@H]1O", 6.30],
  ["C=C[C@]1(CO)O[C@@H](c2ccc3c(N)ncnn23)[C@H](F)[C@@H]1O", 6.22]
]}

Each molecule below has a recorded value; state its pIC50.
1. CC[C@]1(CO)O[C@@H](n2ccc(N)nc2=O)[C@H](F)[C@@H]1O
2. O=c1ccn([C@@H]2O[C@H](CO)[C@@H](O)[C@H]2F)c(=O)[nH]1
3. Nc1nc(O)c2ncn([C@@H]3O[C@H](CO)[C@@H](O)[C@H]3F)c2n1

Solution:
[6.22, 5.46, 5.18]

====

Hi there, I'd appreciate the recorded inhibition for every entry that follows.
Molecular target: DNA-directed RNA polymerase, mitochondrial (Homo sapiens) (UniProt O00411)
Sequence (O00411 whole entry): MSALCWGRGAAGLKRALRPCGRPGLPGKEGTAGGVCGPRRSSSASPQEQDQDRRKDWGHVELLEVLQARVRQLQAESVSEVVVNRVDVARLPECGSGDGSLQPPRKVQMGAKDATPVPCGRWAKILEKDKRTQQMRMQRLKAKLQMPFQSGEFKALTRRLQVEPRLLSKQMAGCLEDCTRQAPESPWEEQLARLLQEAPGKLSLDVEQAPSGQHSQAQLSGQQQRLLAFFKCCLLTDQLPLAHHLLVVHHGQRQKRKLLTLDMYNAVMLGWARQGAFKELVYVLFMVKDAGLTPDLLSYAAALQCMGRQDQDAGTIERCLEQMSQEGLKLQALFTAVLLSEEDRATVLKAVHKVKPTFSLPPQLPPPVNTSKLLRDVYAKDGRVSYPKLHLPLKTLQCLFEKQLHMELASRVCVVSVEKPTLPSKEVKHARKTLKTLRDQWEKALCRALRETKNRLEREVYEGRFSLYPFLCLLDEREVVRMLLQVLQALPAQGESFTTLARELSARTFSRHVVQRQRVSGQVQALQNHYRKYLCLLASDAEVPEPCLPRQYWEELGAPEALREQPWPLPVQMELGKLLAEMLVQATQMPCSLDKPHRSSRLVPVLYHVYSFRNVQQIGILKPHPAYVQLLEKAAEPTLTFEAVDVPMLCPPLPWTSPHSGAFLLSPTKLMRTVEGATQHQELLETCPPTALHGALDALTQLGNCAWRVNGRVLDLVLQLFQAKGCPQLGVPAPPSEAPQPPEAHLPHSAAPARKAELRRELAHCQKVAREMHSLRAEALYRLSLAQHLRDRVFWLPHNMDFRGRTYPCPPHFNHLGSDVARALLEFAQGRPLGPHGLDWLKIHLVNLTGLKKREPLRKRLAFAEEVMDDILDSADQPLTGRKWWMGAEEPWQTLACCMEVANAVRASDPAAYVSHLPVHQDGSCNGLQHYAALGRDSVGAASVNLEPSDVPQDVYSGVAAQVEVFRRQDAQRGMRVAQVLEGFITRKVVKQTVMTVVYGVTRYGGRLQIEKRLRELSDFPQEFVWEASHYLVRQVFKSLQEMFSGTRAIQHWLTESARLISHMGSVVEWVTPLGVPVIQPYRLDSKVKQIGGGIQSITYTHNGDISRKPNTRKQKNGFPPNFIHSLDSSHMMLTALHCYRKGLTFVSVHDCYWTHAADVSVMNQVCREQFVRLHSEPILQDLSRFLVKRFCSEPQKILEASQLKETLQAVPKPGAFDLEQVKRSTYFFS
Test: Inhibition of human mitochondrial RNA polymerase using 5'-32P-R12/D18 as RNA/DNA template assessed as single nucleotide incorporation rate at 500 uM after 0.17 to 30 mins by PAGE analysis
Numbers only, in %.

As a guide, the following entries are already answered.
{"columns": ["ENTRY_SMILES", "inhibition, %"],
 "data": [
  ["Nc1ccn([C@@H]2O[C@H](CO)[C@@H](O)[C@H]2F)c(=O)n1", 20],
  ["C=C[C@]1(CO)O[C@@H](c2ccc3c(N)ncnn23)[C@H](F)[C@@H]1O", 2.9],
  ["N#C[C@]1(CO)O[C@@H](n2cnc3c(=O)[nH]c(N)nc32)[C@H](F)[C@@H]1O", 0]
]}

Each compound below has a recorded value; state its inhibition.
1. CC[C@]1(CO)O[C@@H](c2ccc3c(N)ncnn23)[C@H](F)[C@@H]1O
2. [N-]=[N+]=N[C@]1(CO)O[C@@H](n2ccc(N)nc2=O)[C@H](F)[C@@H]1O
3. Nc1nc(O)c2ncn([C@@H]3O[C@H](CO)[C@@H](O)[C@H]3F)c2n1
4. CC[C@]1(CO)O[C@@H](n2ccc(N)nc2=O)[C@H](F)[C@@H]1O

Solution:
[0.1, 3, 21, 0]

Each compound below has a recorded value; state its inhibition.
1. Nc1ncnc2c1ncn2[C@@H]1O[C@H](CO)[C@@H](O)[C@H]1F
2. C=C[C@]1(CO)O[C@@H](n2ccc(N)nc2=O)[C@H](F)[C@@H]1O
3. C#C[C@]1(CO)O[C@@H](n2cnc3c(=O)[nH]c(N)nc32)[C@H](F)[C@@H]1O

Solution:
1: 24; 2: 1.2; 3: 18

Each compound below has a recorded value; state its inhibition.
1. CC(C)C(=O)OC[C@@]1(N=[N+]=[N-])O[C@@H](n2ccc(N)nc2=O)[C@H](OC(=O)C(C)C)[C@@H]1OC(=O)C(C)C
2. O=c1ccn([C@@H]2O[C@H](CO)[C@@H](O)[C@H]2F)c(=O)[nH]1

Solution:
[112, 37]

Each compound below has a recorded value; state its inhibition.
1. Nc1ccn([C@@H]2O[C@@](CO)(CCl)[C@@H](O)[C@H]2F)c(=O)n1
2. C=C[C@]1(CO)O[C@@H](n2cnc3c(=O)[nH]c(N)nc32)[C@H](F)[C@@H]1O
3. Nc1ncnn2c([C@@H]3O[C@H](CO)[C@@H](O)[C@H]3F)ccc12

Solution:
1. 0
2. 1
3. 22

Data origin, for the record: ChEMBL document CHEMBL3425402
